Sourced from patent US20220242844A1

target: human CB2 receptor (Homo sapiens); construct: host or cells: CHO-K1 (Chinese hamster ovary) cells, stably transfected; membranes prepared in house; assay: CB2 radioligand ([3H]CP 55,940) competitive binding assay
Sequence (P34972 whole entry): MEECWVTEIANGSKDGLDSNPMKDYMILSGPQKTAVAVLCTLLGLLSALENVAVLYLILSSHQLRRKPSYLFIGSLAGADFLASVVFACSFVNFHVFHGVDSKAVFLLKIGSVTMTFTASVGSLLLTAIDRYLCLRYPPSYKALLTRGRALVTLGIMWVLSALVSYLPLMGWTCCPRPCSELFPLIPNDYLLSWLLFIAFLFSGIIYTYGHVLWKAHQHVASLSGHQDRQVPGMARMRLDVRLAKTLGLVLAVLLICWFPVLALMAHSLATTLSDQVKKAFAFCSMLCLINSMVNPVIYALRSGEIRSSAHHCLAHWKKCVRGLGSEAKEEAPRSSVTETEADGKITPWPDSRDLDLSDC
Provide the reported IC50 of each item.

Measured IC50 of C=C(C)C1CCC(C)=CC1c1c(O)cc(CCCCC)c2c1OC(C)(CC(C)=O)OC2=O (stereo not shown) : 1 to 9.9 µM

Lab book: IC50 of CCCCCc1cc(O)c(C2C=C(C)CCC2)c2c1C(=O)OC(CC(C)=O)(c1ccccc1)O2 (stereo not shown) [Compound 12c] noted as 1 to 9.9 µM

Recorded result, CCCCCc1cc(O)c(-c2cccc(C)c2)c2c1C(=O)OC(CC(C)=O)(c1ccccc1)O2 (stereo not shown) [Compound 12a] , IC50: 10 to 19.9 µM

IC50 reading for CCCCCc1cc(O)c(C2C=C(C)CCC2)c2c1C(=O)OC1(CCCC1)O2 (stereo not shown) : 1 to 9.9 µM

* * *

Would you kindly list pIC50 for each of these molecules?
molecular target: human CB1 receptor (Homo sapiens, UniProt P21554); construct: host or cells: CHO-K1 (Chinese hamster ovary) cells, stably transfected; membranes prepared in house; assay: CB1 radioligand ([3H]CP 55,940) competitive binding assay
Sequence (P21554 whole entry): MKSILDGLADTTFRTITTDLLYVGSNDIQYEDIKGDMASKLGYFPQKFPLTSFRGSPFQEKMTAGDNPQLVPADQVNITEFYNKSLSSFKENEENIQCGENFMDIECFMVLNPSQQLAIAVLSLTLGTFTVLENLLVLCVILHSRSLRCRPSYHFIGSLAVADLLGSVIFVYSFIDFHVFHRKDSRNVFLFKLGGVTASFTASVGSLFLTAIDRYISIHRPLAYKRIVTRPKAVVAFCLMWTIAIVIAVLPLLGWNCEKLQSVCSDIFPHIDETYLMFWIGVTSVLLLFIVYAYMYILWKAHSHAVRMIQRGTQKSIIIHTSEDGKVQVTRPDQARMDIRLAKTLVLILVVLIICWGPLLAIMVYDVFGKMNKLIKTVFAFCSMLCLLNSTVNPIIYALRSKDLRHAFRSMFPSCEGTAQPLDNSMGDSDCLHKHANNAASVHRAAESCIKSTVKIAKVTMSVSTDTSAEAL
pIC50: −log10 of the molar value.

C=C(C)[C@@H]1CCC(C)=C[C@H]1c1c(O)cc(CCCCC)c2c1OC(C)(COC)OC2=O (stereo partly drawn) [Compound 11d] tested on human CB1 receptor (Homo sapiens, UniProt P21554) gave pIC50: < 4.70

Lab note: molecule C=C(C)C1CCC(C)=CC1c1c(O)cc(CCCCC)c2c1OC(C)(CC(C)=O)OC2=O (stereo not drawn) [Compound 7d] tested on human CB1 receptor (Homo sapiens, UniProt P21554); recorded pIC50 was < 4.70

Form field pIC50 for item C=C(C)[C@@H]1CCC(C)=C[C@H]1c1c(O)cc(CCCCC)c2c1OC(C)OC2=O (stereo partly drawn) [Compound 16d] on human CB1 receptor (Homo sapiens, UniProt P21554): 5.00 to 6.00

Value (pIC50, human CB1 receptor (Homo sapiens, UniProt P21554)) for record CCCCCc1cc(O)c(C2C=C(C)CCC2)c2c1C(=O)OC(C)(C)O2 (stereo not drawn) [Compound 2c] = 5.00 to 6.00

Lab note: molecule CCCCCc1cc(O)c(C2C=C(C)CCC2)c2c1C(=O)OC(CC(C)=O)(c1ccccc1)O2 (stereo not drawn) [Compound 12c] tested on human CB1 receptor (Homo sapiens, UniProt P21554); recorded pIC50 was 5.00 to 6.00

Form field pIC50 for item CCCCCc1cc(O)c(C2C=C(C)CCC2)c2c1C(=O)OC1(CCCC1)O2 (stereo not drawn) [Compound 9c] on human CB1 receptor (Homo sapiens, UniProt P21554): 4.70 to 5.00

Recorded pIC50 for C=C(C)[C@@H]1CCC(C)=C[C@H]1c1c(O)cc(CCCCC)c2c1OC(CC(C)=O)(c1ccccc1)OC2=O (stereo partly drawn) [Compound 12d] on human CB1 receptor (Homo sapiens, UniProt P21554) was 5.00 to 6.00

Lab entry: human CB1 receptor (Homo sapiens, UniProt P21554) assay, molecule CCCCCc1cc(O)c(-c2cccc(C)c2)c2c1C(=O)OC(CC(C)=O)(c1ccccc1)O2 (stereo not drawn) [Compound 12a] , pIC50 = < 4.70

# value of pIC50, human CB1 receptor (Homo sapiens, UniProt P21554), item C=C(C)[C@@H]1CCC(C)=C[C@H]1c1c(O)cc(CCC)c2c1OC(CC(C)=O)(c1ccccc1)OC2=O (stereo partly drawn) [Compound 24d] = 5.00 to 6.00
